Molecular target: HLA-A*01:01
Test: IEDB peptide-MHC binding, purified MHC/competitive/fluorescence; bounds were set here for any values at or beyond the usual limits of such assays
Settings: source organism: Vaccinia virus Copenhagen
Readout Label: pIC50
Note: pIC50 values are expressed as the negative base-10 logarithm of concentration in M.

Task: Look up pIC50 for this sequence: `MLEGETKLY`
Output: 5.09

---

Target: HLA-A*02:03
Assay: IEDB peptide-MHC binding, purified MHC/competitive/radioactivity; filed as Kd, often an IC50 or EC50 that approximates it; bounds were set here for any values at or beyond the usual limits of such assays
Details: source organism: Homo sapiens
Readout Label: Kd
Please report the result as a number followed by the unit.

Task: Look up Kd for this sequence: `SMEAEMIQL`
Output: 2.38 µM

---

Target: HLA-A*29:02
Assay: IEDB peptide-MHC binding, purified MHC/competitive/radioactivity; filed as Kd, often an IC50 or EC50 that approximates it; bounds were set here for any values at or beyond the usual limits of such assays
Conditions: source organism: Mammarenavirus whitewaterense
Readout Label: Kd (nM)
Numbers only; they are read as nM.

Task: Look up Kd for this sequence: `FYVSSIFLHL`
Output: 10.9

---

Target: HLA-B*15:17
Test: IEDB peptide-MHC binding, purified MHC/competitive/fluorescence; filed as Kd, often an IC50 or EC50 that approximates it; bounds were set here for any values at or beyond the usual limits of such assays
Settings: source organism: Araucaria virus
Readout Label: Kd

Task: Look up Kd for this sequence: `AQKLATKPV`
Output: ≥ 20 µM

---

Target: HLA-B*51:01
Test: IEDB peptide-MHC binding, purified MHC/direct/fluorescence; filed as Kd, often an IC50 or EC50 that approximates it; bounds were set here for any values at or beyond the usual limits of such assays
Settings: source organism: Burkholderia mallei ATCC 23344
Readout Label: Kd

Task: Test system HLA-B*51:01; read-out Kd; what value for `NVMDPMHGA` ?
Output: ≥ 20 µM

---

Molecular target: HLA-B*27:20
Test: IEDB peptide-MHC binding, purified MHC/competitive/fluorescence; filed as Kd, often an IC50 or EC50 that approximates it; bounds were set here for any values at or beyond the usual limits of such assays
Settings: source organism: Yersinia pestis KIM10+
Readout Label: Kd (nM)
Numbers only; they are read as nM.

Task: Look up Kd for this sequence: `SRWAISHWL`
Output: 4.8

---

Target: HLA-A*11:01
Test: IEDB peptide-MHC binding, purified MHC/competitive/fluorescence; bounds were set here for any values at or beyond the usual limits of such assays
Conditions: source organism: Vaccinia virus Copenhagen
Readout Label: IC50 (µM)
Numbers only; they are read as µM.

Task: Look up IC50 for this sequence: `IITPIVFYR`
Output: 0.263

---

Below, each of the sequences is paired with its reported pKd value.
Target: HLA-A*02:03
Test: IEDB peptide-MHC binding, purified MHC/competitive/radioactivity; filed as Kd, often an IC50 or EC50 that approximates it; bounds were set here for any values at or beyond the usual limits of such assays
Conditions: source organism: Dengue virus 1 Brazil/97-11/1997
Note: pKd values are expressed as the negative base-10 logarithm of concentration in M.

| Biosequence | System Under Test | Readout Label | Observed |
| --- | --- | --- | --- |
| GLNSRSTSL | HLA-A*02:03 | pKd | 7.79 |

Okay, next one:
Task: Test system HLA-A*02:03; read-out pKd; what value for `LLKNDVPLA` ?
Output: 8.08
